This collection of values is drawn from patent US20240199746A1.

Target: T1, Ax1 protein, extracellular domain (human, UniProt P30530 26-451)
T1 construct: extracellular domain; also called Axl; Ark
T1 sequence (looked up): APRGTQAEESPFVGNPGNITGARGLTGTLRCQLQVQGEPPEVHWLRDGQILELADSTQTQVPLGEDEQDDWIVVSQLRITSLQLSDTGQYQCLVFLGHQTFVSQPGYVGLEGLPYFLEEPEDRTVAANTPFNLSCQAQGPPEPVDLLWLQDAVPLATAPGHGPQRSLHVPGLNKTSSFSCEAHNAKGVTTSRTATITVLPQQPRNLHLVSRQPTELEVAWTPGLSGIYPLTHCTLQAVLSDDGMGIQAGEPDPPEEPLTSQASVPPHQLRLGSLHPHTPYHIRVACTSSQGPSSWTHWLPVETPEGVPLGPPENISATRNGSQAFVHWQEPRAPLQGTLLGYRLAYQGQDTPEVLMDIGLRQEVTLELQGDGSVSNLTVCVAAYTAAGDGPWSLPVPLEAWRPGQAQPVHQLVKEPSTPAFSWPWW
Assay: ELISA, mutant diluted 1:3
readout: Affinity ELISA CPE mutant ratio (1:3, pH 6.0/7.4)
Answer with a number only.

A selection of reference data follows.
binder: HC-W110R (antibody, V domains shown) VH: EVQLVQSGAEVKKPGATVKISCKVSGYSFTGHTMNWIRQPPGKGLEWIGLIKPSNGGTSYNQKFKGRVTISADKSISTAYLQWSSLKASDTAMYYCAHGHYESYFAMDYRGQGTLVTVSS VL: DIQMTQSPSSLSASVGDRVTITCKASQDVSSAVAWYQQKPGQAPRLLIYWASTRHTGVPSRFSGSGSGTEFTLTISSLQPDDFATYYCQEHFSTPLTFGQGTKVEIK
observed_measurement: 5.99
//
binder: HC-B102D (antibody, V domains shown, CPE single point mutant; printed B102, read as E102 (other rows print HC-E102x)) VH: EVQLVQSGAEVKKPGATVKISCKVSGYSFTGHTMNWIRQPPGKGLEWIGLIKPSNGGTSYNQKFKGRVTISADKSISTAYLQWSSLKASDTAMYYCAHGHYDSYFAMDYWGQGTLVTVSS VL: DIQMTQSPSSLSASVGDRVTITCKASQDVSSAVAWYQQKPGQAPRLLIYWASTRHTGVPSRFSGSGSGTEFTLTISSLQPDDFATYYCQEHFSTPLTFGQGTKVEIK
observed_measurement: 2.67

Here is the next item to consider.
Incoming: Given the entry HC-S059I (antibody, V domains shown, CPE single point mutant) VH: EVQLVQSGAEVKKPGATVKISCKVSGYSFTGHTMNWIRQPPGKGLEWIGLIKPSNGGTIYNQKFKGRVTISADKSISTAYLQWSSLKASDTAMYYCAHGHYESYFAMDYWGQGTLVTVSS VL: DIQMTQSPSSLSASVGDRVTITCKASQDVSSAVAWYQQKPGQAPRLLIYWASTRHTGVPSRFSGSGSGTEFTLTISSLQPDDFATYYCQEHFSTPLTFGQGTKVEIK , report its measured Affinity ELISA CPE mutant ratio (1:3, pH 6.0/7.4).
Outgoing: 30.5
